Attribution: ChEMBL document CHEMBL1138738

molecular target: Metabotropic glutamate receptor 7 (Rattus norvegicus)
Sequence (P35400 whole entry): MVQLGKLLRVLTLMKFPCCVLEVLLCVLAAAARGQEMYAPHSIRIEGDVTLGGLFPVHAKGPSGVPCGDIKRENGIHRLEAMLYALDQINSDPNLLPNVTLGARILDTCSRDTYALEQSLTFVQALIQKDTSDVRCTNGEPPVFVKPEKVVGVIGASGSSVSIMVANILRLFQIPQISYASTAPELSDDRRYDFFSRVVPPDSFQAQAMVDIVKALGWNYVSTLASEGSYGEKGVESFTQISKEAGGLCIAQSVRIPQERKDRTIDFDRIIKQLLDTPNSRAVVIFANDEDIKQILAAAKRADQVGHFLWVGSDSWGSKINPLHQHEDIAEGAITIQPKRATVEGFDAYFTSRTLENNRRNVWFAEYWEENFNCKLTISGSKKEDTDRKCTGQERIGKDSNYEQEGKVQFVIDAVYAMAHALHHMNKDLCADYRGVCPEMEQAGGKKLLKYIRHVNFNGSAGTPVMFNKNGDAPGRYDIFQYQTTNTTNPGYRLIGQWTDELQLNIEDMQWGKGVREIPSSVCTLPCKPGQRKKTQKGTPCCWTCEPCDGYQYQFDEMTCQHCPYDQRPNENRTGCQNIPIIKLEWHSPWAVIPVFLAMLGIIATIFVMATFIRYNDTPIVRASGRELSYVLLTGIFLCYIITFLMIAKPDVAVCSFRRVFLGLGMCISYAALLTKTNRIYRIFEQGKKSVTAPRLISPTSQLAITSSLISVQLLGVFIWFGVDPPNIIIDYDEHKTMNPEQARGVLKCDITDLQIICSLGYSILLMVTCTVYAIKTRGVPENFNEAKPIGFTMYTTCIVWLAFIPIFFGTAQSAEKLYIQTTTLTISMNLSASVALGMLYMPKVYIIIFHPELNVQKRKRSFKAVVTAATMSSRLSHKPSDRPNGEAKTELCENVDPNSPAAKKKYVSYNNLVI
metric: Ki

{"compound structure": "N[C@](CC1c2ccccc2Oc2ccccc21)(C(=O)O)[C@H]1C[C@@H]1C(=O)O", "value reported": "110 nM"}

---

test: Maximum time required to achieve peak plasma concentration upon oral dose of 30 mg/kg to rats; type: ADME, organism-based; design: dose 30 mg/kg, route oral; conditions: rat

{"compound structure": "N[C@]1(C(=O)O)[C@H]2[C@@H](C[C@H]1OC(c1ccccc1)c1ccccc1)[C@]2(F)C(=O)O", "Tmax (h)": 1}
{"compound structure": "N[C@]1(C(=O)O)[C@H]2[C@@H](C[C@H]1OCc1ccc(Cl)c(Cl)c1)[C@]2(F)C(=O)O", "Tmax (h)": 3.3}
{"compound structure": "N[C@]1(C(=O)O)[C@H]2[C@@H](C[C@H]1OCc1ccc3ccccc3c1)[C@]2(F)C(=O)O", "Tmax (h)": 2.7}
{"compound structure": "N[C@]1(C(=O)O)[C@H]2[C@@H](C[C@H]1OCc1ccc(Cl)cc1)[C@]2(F)C(=O)O", "Tmax (h)": 2.7}
{"compound structure": "N[C@]1(C(=O)O)[C@H]2[C@@H](C[C@H]1OCc1ccc(F)c(F)c1)[C@]2(F)C(=O)O", "Tmax (h)": 1.2}
